Target: T1, human IL-11Rα (human, UniProt Q14626 23-363, limits assumed)
T1 construct: Protein coated on ELISA plates and used in solution for BLI; also called hIL-11Rα; hIL-11R
T1 sequence: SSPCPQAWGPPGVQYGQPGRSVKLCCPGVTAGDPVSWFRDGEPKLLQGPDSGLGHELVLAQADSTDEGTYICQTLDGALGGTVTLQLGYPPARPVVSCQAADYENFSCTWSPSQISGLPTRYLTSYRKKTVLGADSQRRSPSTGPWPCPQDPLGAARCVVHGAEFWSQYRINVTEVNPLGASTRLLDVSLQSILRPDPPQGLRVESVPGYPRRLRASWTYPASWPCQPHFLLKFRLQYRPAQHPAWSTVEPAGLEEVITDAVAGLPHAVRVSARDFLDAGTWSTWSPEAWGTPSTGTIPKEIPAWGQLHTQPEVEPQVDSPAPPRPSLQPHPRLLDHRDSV
Assay: BLI (Octet RED96e), mAb on anti-human constant domain (AHC) biosensors, hIL-11R in solution
reported metric: kon (M⁻¹ s⁻¹)
// units = M⁻¹ s⁻¹; emit number, no label

Reference set, count: 4
binder	unit descriptor	data value
mAb5 (antibody, V domains shown, Expressed as human IgG4 (S228P EU); also called mAb5 IL11RA Ab) VH: EVQLLESGGGLVQPGGSLRLSCAASGFTFSWYSMTWVRQAPGKGLEWVSSIVPYGDLTQYADSVKGRFTISRDNSKNTLYLQMNSLRAEDTAVYYCAKGPGWGSFDLWGRGTLVTVSS VL: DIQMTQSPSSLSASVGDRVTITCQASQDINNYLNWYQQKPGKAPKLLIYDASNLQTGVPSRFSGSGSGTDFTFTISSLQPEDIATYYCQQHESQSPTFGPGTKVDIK	M⁻¹ s⁻¹	490000
mAb31 (antibody, human IgG4, V domains shown, Expressed as human IgG4 (S228P EU)) VH: EVQLLESGGGLVQPGGSLRLSCAASGFTFSVYSMTWVRQAPGKGLEWVSSIVPYGDLTQYADSVKGRFTISRDNSKNTLYLQMNSLRAEDTAVYYCAKGPGWGSFDLWGRGTLVTVSS VL: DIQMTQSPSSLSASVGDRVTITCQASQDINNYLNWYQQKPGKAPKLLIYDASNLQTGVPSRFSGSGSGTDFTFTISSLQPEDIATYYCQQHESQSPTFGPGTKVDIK	M⁻¹ s⁻¹	690000
mAb29 (antibody, human IgG4, V domains shown, Expressed as human IgG4 (S228P EU)) VH: EVQLLESGGGLVQPGGSLRLSCAASGFTFSSYSMTWVRQAPGKGLEWVSSIVPYGDLTQYADSVKGRFTISRDNSKNTLYLQMNSLRAEDTAVYYCAKGPGWGSFDLWGRGTLVTVSS VL: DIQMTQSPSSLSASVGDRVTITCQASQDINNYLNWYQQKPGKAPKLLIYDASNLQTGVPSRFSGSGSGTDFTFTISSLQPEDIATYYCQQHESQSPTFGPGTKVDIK	M⁻¹ s⁻¹	610000
mAb23 (antibody, human IgG4, V domains shown, Expressed as human IgG4 (S228P EU)) VH: EVQLLESGGGLVQPGGSLRLSCAASGFTFSKYSMTWVRQAPGKGLEWVSSIVPYGDLTQYADSVKGRFTISRDNSKNTLYLQMNSLRAEDTAVYYCAKGPGWGSFDLWGRGTLVTVSS VL: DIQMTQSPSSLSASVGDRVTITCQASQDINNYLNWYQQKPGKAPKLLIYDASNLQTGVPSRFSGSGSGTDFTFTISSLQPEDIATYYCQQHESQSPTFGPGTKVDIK	M⁻¹ s⁻¹	720000

Now let's try a different one.
Name the recorded kon of the item mAb21 (antibody, human IgG4, V domains shown, Expressed as human IgG4 (S228P EU)) VH: EVQLLESGGGLVQPGGSLRLSCAASGFTFSHYSMTWVRQAPGKGLEWVSSIVPYGDLTQYADSVKGRFTISRDNSKNTLYLQMNSLRAEDTAVYYCAKGPGWGSFDLWGRGTLVTVSS VL: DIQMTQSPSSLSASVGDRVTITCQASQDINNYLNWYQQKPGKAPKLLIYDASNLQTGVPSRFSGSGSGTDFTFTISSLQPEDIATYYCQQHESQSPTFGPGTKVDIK in your answer. 750000

The reported measurements were obtained from patent US20240425606A1.
